Test system: 786-0 complex spheroids with HUVEC/MSC, growth % test/control
Test: Anticancer human tumor 786-0 cell line growth inhibition [AhR];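 also: compound exposure lasted seven days before the read-out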
Details: second compound 3.16 µM; first compound 3.16 µM; active compounds read low
# label = criterion met if viability, T/C < 40% else criterion not met

[in] Criterion: viability, T/C strictly below 40%. Is it met by COc1cc(Nc2ncc3c(n2)-c2ccc(Cl)cc2C(c2c(F)cccc2OC)=NC3)ccc1C(=O)O + Cc1ccccc1N=Nc1ccc(NC(=O)c2ccnn2C)c(C)c1 ?
[out] criterion not met

[in] Criterion: viability, T/C strictly below 40%. Is it met by NS(=O)(=O)OCC1CC(n2ccc3c(NC4CCc5ccccc54)ncnc32)CC1O (stereo unspecified) + CC(CO)NC(=O)c1cc(-c2ccc(Cl)cc2)nn(-c2cnn(C)c2)c1=O ?
[out] criterion met

[in] Criterion: viability, T/C strictly below 40%. Is it met by COc1cc(C2c3cc4c(cc3C(OC3OC5COC(C)OC5C(O)C3O)C3COC(=O)C23)OCO4)cc(OC)c1O (stereo unspecified) + Cc1ccccc1N=Nc1ccc(NC(=O)c2ccnn2C)c(C)c1 ?
[out] criterion met

[in] Criterion: viability, T/C strictly below 40%. Is it met by COc1cc(C2c3cc4c(cc3C(OC3OC5COC(C)OC5C(O)C3O)C3COC(=O)C23)OCO4)cc(OC)c1O (stereo unspecified) + CC(CO)NC(=O)c1cc(-c2ccc(Cl)cc2)nn(-c2cnn(C)c2)c1=O ?
[out] criterion met

[in] Criterion: viability, T/C strictly below 40%. Is it met by CC1COCCN1c1cc(C2(S(C)(=N)=O)CC2)nc(-c2ccnc3[nH]ccc23)n1 (stereo unspecified) + CC(CO)NC(=O)c1cc(-c2ccc(Cl)cc2)nn(-c2cnn(C)c2)c1=O ?
[out] criterion met
